tested on: NCI-H460; assay: NCI tumour cell line growth inhibition, 48 h
Active and inactive are the calls of the source. Rule as the data show it: active = GI50 up to about 1.1 µM and inactive = higher.
Readout Type: GI50

Query :: Would you kindly share the measured GI50 for Oc1cc(Cc2ccccc2)c(Cc2ccccc2)cc1O ?
Result :: > 10 µM (inactive)

Query :: Now this one: O=C(c1cc2ccccc2o1)N(Cc1ccccc1)c1ccccc1
Result :: 26.9 µM (inactive)

Query :: Now this one: O=C(O)CSc1cc(-c2ccccc2)nc2ccccc12
Result :: 38.7 µM (inactive)

Query :: Now this one: N#CCCN(CCC#N)c1ccc(/C=C2\N=C(c3ccccc3)N(c3ccccc3)C2=O)cc1
Result :: 2.1 µM (inactive)

Query :: Now this one: CC12C(=O)CC(CC1=O)C2(C)C
Result :: > 100 µM (inactive)

Query :: Now this one: O=C1Nc2ccccc2/C1=N/Nc1ccccc1[N+](=O)[O-]
Result :: 19.9 µM (inactive)

Attribution: ChEMBL document CHEMBL1201862
